# target_system: T1, mutant human CD20 #6 (Y77F, N166D) (human, UniProt P11836 1-297)
# T1 construct: Stably expressed on MG87 cells
# T1 chain: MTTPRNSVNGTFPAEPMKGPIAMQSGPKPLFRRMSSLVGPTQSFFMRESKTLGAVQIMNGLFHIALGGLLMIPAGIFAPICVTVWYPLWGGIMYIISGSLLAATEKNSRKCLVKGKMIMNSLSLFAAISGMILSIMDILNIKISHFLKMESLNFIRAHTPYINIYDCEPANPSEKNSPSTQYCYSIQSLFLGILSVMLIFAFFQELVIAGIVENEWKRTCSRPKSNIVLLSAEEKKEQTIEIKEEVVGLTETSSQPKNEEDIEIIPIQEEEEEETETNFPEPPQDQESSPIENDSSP
# test_protocol: FACS, mutant-hCD20 MG87 cells; 100%=best antibody
assay_endpoint: Percent of Binding to Mutant Human CD20 (%)

INSERT INTO measurements (binder, assay_endpoint, readout_value) VALUES
  ('6B9-4 (antibody, V domains shown, Fully human IgG, constant region not specified; also called 6B9-4N) VH: EEQLVESGGDLVQPGRSLRLSCAASGFTFHDYTMHWVRQAPGKGLEWVSGISWNSGSIGYADSVKGRFTISRDNAKNSLYLQMNSLRIEDTALYYCAKDPSYGSGSYYYYYGMDVWGQGTTVTVSS VL: EIVLTQSPATLSLSPGERATLSCRASQSVSSYLVWYQQRPGQAPRLLIYEASNRATGIPARFSGSGSGTDFTLTISSLESEDFAVYYCQQRSNWPLTFGGGTKVEIK', 'Percent of Binding to Mutant Human CD20', 1),
  ('2C11-4 (antibody, V domains shown, Fully human IgG, constant region not specified; also called 2C11-4N) VH: EVQLVESGGGLVQPGRSLRLSCAASGFTFRDYAMHWVRQGPGKGLEWVSGISWNTDYIGYADSVKGRFTISRDNAKNSLYLQMNSLRPEDTALYYCAKDARYGRDNYYGMDVWGQGTTVTVSS VL: EIVLTQSPATLSLSPGERATLSCRASQSVSRYLAWYQQKPGQAPRLLIHDASNRATGIPARFSGSGSGTDFTLTITSLEPEDFVVYYCQQRSDWPITFGQGTRLEIK', 'Percent of Binding to Mutant Human CD20', 1);
